Task for the reader: assign each of the following compounds its reported Oat, Wild plant response rating (0 to 100 scale).
# Tested on: oat, wild (wild oat, Avena fatua)
# measurementProtocol: Test A preemergence soil spray, visual injury rating 0-100
# Type: in vivo
# experimentalContext: 125 g ai/ha, 10 days, 0 = no effect, 100 = complete control
When you answer, write just the number.

Identify measured Oat, Wild plant response rating (0 to 100 scale) associated with CC(C)COC(=O)C1C=CC(NC(=O)C2(C)CN(c3cc(F)cc(F)c3)C(=O)O2)C1 (stereo not drawn) 90

Quote Oat, Wild plant response rating (0 to 100 scale) reported for CCS(=O)(=O)NC(=O)C1C=CC(NC(=O)C2(C)CN(c3cc(F)cc(F)c3)C(=O)O2)C1 (stereo not drawn) please. 70

Output measured Oat, Wild plant response rating (0 to 100 scale) for this item: CC(C)COC(=O)C1=CCC(NC(=O)C2(C)CN(c3cc(F)cc(F)c3)C(=O)O2)C1 (stereo not drawn) 50

Please indicate Oat, Wild plant response rating (0 to 100 scale) recorded for CC(C)OC(=O)C1=CCC(NC(=O)C2(C)CN(c3cc(F)cc(F)c3)C(=O)O2)C1 (stereo not drawn) 90

Note down Oat, Wild plant response rating (0 to 100 scale) recorded for CC1(C(=O)NC2C=CC(C(=O)O)C2)CN(c2cc(F)cc(Cl)c2)C(=O)O1 (stereo not drawn) 90

Complete the entry with Oat, Wild plant response rating (0 to 100 scale) for COC(=O)C1C=CC(NC(=O)C2(C)CN(c3cc(Cl)cc(Cl)c3)C(=O)O2)C1 (stereo not drawn) 90

Return the recorded Oat, Wild plant response rating (0 to 100 scale) value; entry: CC1(C(=O)NC2CC=C(C(=O)OCC(F)(F)F)C2)CN(c2cc(F)cc(F)c2)C(=O)O1 (single isomer, unassigned) 20

Annotate the compound CCOC(=O)C1C=CC(NC(=O)C2(C)CN(c3cc(Cl)cc(Cl)c3)C(=O)O2)C1 (stereo not drawn) with its measured Oat, Wild plant response rating (0 to 100 scale). 80

Note down Oat, Wild plant response rating (0 to 100 scale) recorded for CC(C)OC(=O)C1=CCC(NC(=O)C2(C)CN(c3cc(Cl)cc(Cl)c3)C(=O)O2)C1 (stereo not drawn) 20

Supply measured Oat, Wild plant response rating (0 to 100 scale) of CC(C)OC(=O)C1CCC(NC(=O)C2(C)CN(c3cc(F)cc(F)c3)C(=O)O2)C1 (stereo not drawn) in your reply. 90

Supply Oat, Wild plant response rating (0 to 100 scale) value. Item: CC1(C(=O)NC2C=CC(C(=O)OCC(F)(F)F)C2)CN(c2cc(Cl)cc(Cl)c2)C(=O)O1 (stereo not drawn) 50

Give Oat, Wild plant response rating (0 to 100 scale) for the following compound: CCOC(=O)C1=CCC(NC(=O)C2(C)CN(c3cc(F)cc(F)c3)C(=O)O2)C1 (stereo not drawn) 50

---

# System: barnyardgrass (Echinochloa crus-galli)
# measurementProtocol: Test A postemergence application, visual injury rating 0-100
# Type: in vivo
# experimentalContext: 62 g ai/ha, postemergence, 10 days, 0 = no effect, 100 = complete control
quantityMeasured: Barnyardgrass plant response rating (0-100)
Answer as a number with no unit attached.

For the compound CC1(C(=O)NC2CC=C(C(=O)O)C2)CN(c2cc(Cl)cc(Cl)c2)C(=O)O1 (centres unmarked) , give its reported Barnyardgrass plant response rating (0-100). 40

Determine its reported Barnyardgrass plant response rating (0-100): C=CC1(C(=O)NC2C=CC(C(=O)OC)C2)CN(c2cc(F)cc(F)c2)C(=O)O1 (single isomer, unassigned) 90

Please supply the value of reported Barnyardgrass plant response rating (0-100) for the item CC1(C(=O)NC2CC=C(C(=O)NS(=O)(=O)C3CC3)C2)CN(c2cc(F)cc(F)c2)C(=O)O1 (racemic) 90

Identify measured Barnyardgrass plant response rating (0-100) corresponding to COC(=O)C1C=CC(NC(=O)C2(C(F)(F)F)CN(c3cc(F)c(F)c(F)c3)C(=O)O2)C1 (mixture of isomers) 100

Kindly indicate its recorded Barnyardgrass plant response rating (0-100). Item: CC(C)COC(=O)C1=CCC(NC(=O)C2(C)CN(c3cc(Cl)cc(Cl)c3)C(=O)O2)C1 (centres unmarked) 100

Give a short answer stating reported Barnyardgrass plant response rating (0-100) for CC1(C(=O)NC2CC=C(C(=O)OCC(F)F)C2)CN(c2cc(Cl)cc(Cl)c2)C(=O)O1 (centres unmarked) . 100

Hello, please tell me recorded Barnyardgrass plant response rating (0-100) for this one: CC1(C(=O)NC2CC=C(C(=O)O)C2)CN(c2cc(F)cc(F)c2)C(=O)O1 (centres unmarked) 100

Report measured Barnyardgrass plant response rating (0-100); entry is CCOC(=O)C1=CCC(NC(=O)C2(C)CN(c3cc(Cl)cc(Cl)c3)C(=O)O2)C1 (centres unmarked) [Compound 114] 100

Give the reported value of Barnyardgrass plant response rating (0-100) for this record: CCOC(=O)C1=CCC(NC(=O)C2(C)CN(c3cc(F)cc(Cl)c3)C(=O)O2)C1 (centres unmarked) 100

Please report the measured Barnyardgrass plant response rating (0-100) for CCOC(=O)C1=CCC(NC(=O)C2(C)CN(c3cc(Cl)cc(Cl)c3)C(=O)O2)C1 (centres unmarked) [Compound 113] 10

Return value of Barnyardgrass plant response rating (0-100) for input C=CC1(C(=O)NC2CC(C(=O)OC)C2)CN(c2cc(F)cc(F)c2)C(=O)O1 (centres unmarked) [Compound 175] , no commentary. 70

Quick one: give measured Barnyardgrass plant response rating (0-100) for COC(=O)COC(=O)C1=CCC(NC(=O)C2(C)CN(c3cc(Cl)cc(Cl)c3)C(=O)O2)C1 (centres unmarked) 100

Specify reported Barnyardgrass plant response rating (0-100) for the compound shown: COC(=O)C1C=CC(NC(=O)C2(C)CN(c3cc(Cl)c(F)c(Cl)c3)C(=O)O2)C1 (centres unmarked) 100

Give the reported value of Barnyardgrass plant response rating (0-100) for this record: CC(C)OC(=O)C1=CCC(NC(=O)C2(C)CN(c3cc(Cl)cc(Cl)c3)C(=O)O2)C1 (centres unmarked) 0

Please report the measured Barnyardgrass plant response rating (0-100) for C=CC1(C(=O)NC2COC(C(=O)OC)C2)CN(c2cc(F)cc(F)c2)C(=O)O1 (centres unmarked) [Compound 170] 30

Recall and state the measured Barnyardgrass plant response rating (0-100) for COC(=O)C1=CCC(NC(=O)C2(C)CN(c3cc(Cl)cc(Cl)c3)C(=O)O2)C1 (centres unmarked) . 100

Provide measured Barnyardgrass plant response rating (0-100) value, entry: C=CC1(C(=O)NC2CC(C(=O)OC)C2)CN(c2cc(F)cc(F)c2)C(=O)O1 (centres unmarked) [Compound 174] 20

Identify Barnyardgrass plant response rating (0-100) associated with the compound CC1(C(=O)NC2CC=C(C(=O)OCC3CC3)C2)CN(c2cc(F)cc(Cl)c2)C(=O)O1 (centres unmarked) 100

Give the reported value of Barnyardgrass plant response rating (0-100) for this record: CSCCOC(=O)C1CC(NC(=O)C2(C)CN(c3cc(F)cc(F)c3)C(=O)O2)C1 (racemic) 100

Output measured Barnyardgrass plant response rating (0-100) for this item: COC(=O)C1CC(NC(=O)C2(C(F)(F)F)CN(c3cc(F)cc(F)c3)C(=O)O2)C2CC12 (centres unmarked) 80

Tell me measured Barnyardgrass plant response rating (0-100) for COC(=O)C1=CCC(NC(=O)C2(C)CN(c3cc(Cl)c(F)c(Cl)c3)C(=O)O2)C1 (centres unmarked) please. 100

In one line, give reported Barnyardgrass plant response rating (0-100) of the entry CSCCOC(=O)C1=CCC(NC(=O)C2(C)CN(c3cc(F)cc(Cl)c3)C(=O)O2)C1 (centres unmarked) . 100

Recall and state the measured Barnyardgrass plant response rating (0-100) for CC1(C(=O)NC2C=CC(C(=O)O)C2)CN(c2cc(F)cc(F)c2)C(=O)O1 (centres unmarked) [Compound 131] . 100

---

# Test system: horseweed (Erigeron canadensis)
# measurementProtocol: Test A postemergence application, visual injury rating 0-100
# Assay type: in vivo
# experimentalContext: 62 g ai/ha, postemergence, 10 days, 0 = no effect, 100 = complete control
quantityMeasured: Horseweed plant response rating (0-100)
Lab note: record the figure alone, no unit after it.

Answer with the recorded Horseweed plant response rating (0-100) of C=CC1(C(=O)NC2C=CC(C(=O)OC)C2)CN(c2cc(F)cc(F)c2)C(=O)O1 (single isomer, unassigned) [Compound 167] only. 80

Give the value of Horseweed plant response rating (0-100) reported for the following: CCOC(=O)C1CC(NC(=O)C2(C)CN(c3cc(F)cc(F)c3)C(=O)O2)C1 (stereo not shown) 20

Answer with the recorded Horseweed plant response rating (0-100) of COC(=O)C1C=CC(NC(=O)C2(C)CN(c3cc(C)cc(C)c3)C(=O)O2)C1 (stereo not shown) only. 0

Fill in Horseweed plant response rating (0-100) for record COC(=O)COC(=O)C1=CCC(NC(=O)C2(C)CN(c3cc(Cl)cc(Cl)c3)C(=O)O2)C1 (stereo not shown) [Compound 110] 80

Give Horseweed plant response rating (0-100) for CC1(C(=O)NC2CC(C(=O)O)C2)CN(c2cc(F)cc(Cl)c2)C(=O)O1 (racemic) 50

Read the entry COC(=O)C1CC(NC(=O)C2(C)CN(c3cc(F)cc(Cl)c3)C(=O)O2)C1 (stereo not shown) and write its reported Horseweed plant response rating (0-100). 30

Give Horseweed plant response rating (0-100) for COC(=O)C1C=CC(NC(=O)C2(C)CN(c3cc(F)cc(F)c3)C(=O)O2)C1 (stereo not shown) 80

Report Horseweed plant response rating (0-100) for CSCCOC(=O)C1=CCC(NC(=O)C2(C)CN(c3cc(F)cc(Cl)c3)C(=O)O2)C1 (stereo not shown) 90

Please supply the value of reported Horseweed plant response rating (0-100) for the item CC1(C(=O)NC2CC=C(C(=O)OCC(F)(F)F)C2)CN(c2cc(Cl)cc(Cl)c2)C(=O)O1 (stereo not shown) 70

State its Horseweed plant response rating (0-100) for this molecule: COC(=O)C1CC(NC(=O)C2(C)CN(c3cc(F)cc(F)c3)C(=O)O2)C1 (stereo not shown) 0

State, in one line, measured Horseweed plant response rating (0-100) of COC(=O)C1C=CC(NC(=O)C2(C)CN(c3cccc(OC(F)(F)F)c3)C(=O)O2)C1 (mixture of isomers) 10

Input C=CC1(C(=O)NC2C=CC(C(=O)OC)C2)CN(c2cc(F)cc(F)c2)C(=O)O1 (single isomer, unassigned) [Compound 168] , output reported Horseweed plant response rating (0-100). 0

Provide Horseweed plant response rating (0-100) value for the following molecule: CC1(C(=O)NC2C=CC(C(=O)O)C2)CN(c2cc(F)cc(F)c2)C(=O)O1 (stereo not shown) 80

Note Horseweed plant response rating (0-100) for the molecule shown: COC(=O)COC(=O)C1=CCC(NC(=O)C2(C)CN(c3cc(F)cc(F)c3)C(=O)O2)C1 (stereo not shown) 70

Please report Horseweed plant response rating (0-100) for the following molecule: COC(=O)COC(=O)C1=CCC(NC(=O)C2(C)CN(c3cc(Cl)cc(Cl)c3)C(=O)O2)C1 (stereo not shown) [Compound 109] 20

Provide measured Horseweed plant response rating (0-100) value, entry: COC(=O)C1CC(NC(=O)C2(C(F)(F)F)CN(c3cc(F)cc(F)c3)C(=O)O2)C2CC12 (stereo not shown) 10

For the molecule CC1(C(=O)NC2CC=C(C(=O)NS(=O)(=O)C(C)(C)C)C2)CN(c2cc(F)cc(F)c2)C(=O)O1 (racemic) , give its measured Horseweed plant response rating (0-100) value. 0

Supply reported Horseweed plant response rating (0-100) belonging to this molecule: CCOC(=O)C1C=CC(NC(=O)C2(C)CN(c3cccc(OC(F)(F)F)c3)C(=O)O2)C1 (stereo not shown) 10

Report Horseweed plant response rating (0-100) for CC1(C(=O)NC2CC=C(C(=O)NS(C)(=O)=O)C2)CN(c2cc(F)cc(F)c2)C(=O)O1 (racemic) 0

Given the molecule CC1(C(=O)NC2CC=C(C(=O)NS(=O)(=O)C3CC3)C2)CN(c2cc(F)cc(F)c2)C(=O)O1 (racemic) , write its reported Horseweed plant response rating (0-100). 60

Quick one: give measured Horseweed plant response rating (0-100) for CC1(C(=O)NC2CC=C(C(=O)OCC(F)(F)F)C2)CN(c2cc(F)cc(Cl)c2)C(=O)O1 (stereo not shown) 0

Return value of Horseweed plant response rating (0-100) for input CC1(C(=O)NC2CC(C(=O)OCC(F)(F)F)C2)CN(c2cc(F)cc(F)c2)C(=O)O1 (stereo not shown) , no commentary. 10

Determine from records and report Horseweed plant response rating (0-100) for CCOC(=O)C1=CCC(NC(=O)C2(C)CN(c3cc(F)cc(Cl)c3)C(=O)O2)C1 (stereo not shown) 0

Name the recorded Horseweed plant response rating (0-100) of the item C=CC1(C(=O)NC2CC(C(=O)OC)C2)CN(c2cc(F)cc(F)c2)C(=O)O1 (stereo not shown) in your answer. 0

Respond only with Horseweed plant response rating (0-100) recorded for CC(C)COC(=O)C1=CCC(NC(=O)C2(C)CN(c3cc(Cl)cc(Cl)c3)C(=O)O2)C1 (stereo not shown) 80
